Read-out: Monokine induced gamma interferon (MIG), CXCL9 (gene 4283)
assay: BSK_hDFCGF_MIG: BioMAP Diversity Plus: hDFCGF Assay for Monokine induced gamma interferon (MIG) Biomarker Activity (AID 2283063)
test-context: primary human foreskin fibroblasts; actives raise or lower the signal
Calls of active or inactive are those of the source. How the source made its calls: active means hit-call score of the fitted dose curve at least 0.9, where 1 is the maximum; inactive means score below 0.9.
Outcome codes: true for active, false for inactive

# compound, category
rows = [
    ("NC1CCCCC1", "false"),
    ("Cc1ccc(C(C)(C)C)c(O)c1", "false"),
    ("CC(N)=O", "false"),
    ("O=C(NS(=O)(=O)/C=C/c1cccs1)c1ccc(F)cc1Br", "false"),
    ("CC(=O)OC1CC(C)OC(C)O1 (centres undefined)", "false"),
    ("O=C1OC(c2ccc(O)cc2)(c2ccc(O)cc2)c2ccccc21", "false"),
    ("Nc1nc(=S)c2[nH]cnc2[nH]1", "false"),
    ("CCCC[C@H]1CN(CC2CCOCC2)C(=O)OC12CCN(C1(C)CCN(C(=O)c3c(C)ncnc3C)CC1)CC2", "false"),
    ("CCCCCCC(CCCCCCCCCCC(=O)OCC(COC(C)=O)OC(C)=O)OC(C)=O (centres undefined)", "false"),
    ("NC=O", "false"),
    ("Oc1ccc(O)cc1", "true"),
    ("CC(=O)O", "false"),
    ("Cc1c(C)c2c(c(C)c1O)CCC(C)(COc1ccc(CC3SC(=O)NC3=O)cc1)O2 (centres undefined)", "true"),
    ("COc1ccc(C(=O)Nc2nc3ccccc3c(NCc3ccccc3)c2C#N)cc1", "false"),
]

----------
assay: ATG_PPRE_CIS: Attagene CIS-FACTORIAL HepG2 Assay for human Peroxisome Proliferator-activated Response Element (PPRE) (AID 2282958)
test-context: HepG2 PPRE cis-element reporter, Attagene transcription factor profiling; actives raise or lower the signal
Active and inactive are the calls of the source. Rule for the calls: active = hit-call score of the fitted dose curve at least 0.9, where 1 is the maximum; inactive = score below 0.9.

# compound, AC50
records = [
    ("O=C(NS(=O)(=O)/C=C/c1cccs1)c1ccc(F)cc1Br", "inactive"),
    ("CCCC(=O)O", "inactive"),
    ("CS(=O)(=O)c1ccc([C@@H](C[C@H]2CCC(=O)C2)C(=O)Nc2cnccn2)cc1Cl", "inactive"),
    ("Cc1cc(SC2=C(O)C[C@@](CCc3ccc(N)cc3)(C(C)C)OC2=O)c(C(C)(C)C)cc1CO", "57.6 µM (active)"),
    ("CCCCCCCCCCCCCCCCO", "inactive"),
    ("NC=O", "inactive"),
    ("CCC(C)N(C)C(=O)c1cc2ccccc2c(-c2ccccc2Cl)n1 (centres undefined)", "106 µM (active)"),
    ("CN(C)CCCN(C)CCCN(C)C", "inactive"),
    ("Oc1ccc(O)cc1", "62.5 µM (active)"),
    ("O=C1CCCCC1", "inactive"),
    ("CN(C)CCCN1c2ccccc2Sc2ccc(Cl)cc21", "inactive"),
    ("CCOCCOCCO", "inactive"),
    ("CN(C)C(=O)NC1(c2ccccc2)CCN(CC[C@@]2(c3ccc(F)c(F)c3)CN(C(=O)c3ccccc3)CCO2)CC1", "inactive"),
    ("CCCCCCC(CCCCCCCCCCC(=O)OCC(COC(C)=O)OC(C)=O)OC(C)=O (centres undefined)", "39.6 µM (active)"),
    ("CSc1ccc(Oc2ccc(S(N)(=O)=O)cc2CN(C)C)cc1C", "inactive"),
    ("CC(C)COC(=O)CCCCC(=O)OCC(C)C", "inactive"),
    ("CCc1nc(N)nc(N)c1-c1ccc(Cl)cc1", "26.8 µM (active)"),
    ("CC1(C)C(=O)NC(=O)N1CO", "inactive"),
    ("COc1ccc(C(=O)Nc2nc3ccccc3c(NCc3ccccc3)c2C#N)cc1", "1.68 µM (active)"),
    ("O=[Si]=O", "inactive"),
    ("O=NO", "inactive"),
    ("C/C=C/C=C/C(=O)O", "inactive"),
    ("O=C(Oc1ccccc1)c1cccc(C(=O)Oc2ccccc2)c1", "104 µM (active)"),
    ("C=CCc1ccc(OC)c(OC)c1", "inactive"),
    ("O=C1NC(=O)C(c2ccccc2)(c2ccccc2)N1", "inactive"),
    ("O=C(O)CN(CC(=O)O)CC(=O)O", "inactive"),
    ("COC(=O)[C@H]1[C@H]2C[C@@H]3c4[nH]c5cc(OC)ccc5c4CCN3C[C@H]2C[C@@H](OC(=O)c2cc(OC)c(OC)c(OC)c2)[C@@H]1OC", "inactive"),
    ("CN(C)C(=O)NC1(c2ccccc2)CCN(CCC[C@]2(c3ccc(Cl)c(Cl)c3)CCCN(C(=O)c3ccccc3)C2)CC1", "4.58 µM (active)"),
    ("CCCCOC(=O)CCCCC(=O)OCCCC", "inactive"),
    ("O=Cc1ccccc1C=O", "inactive"),
    ("CC1=C(C)S(=O)(=O)CCS1(=O)=O", "89.5 µM (active)"),
    ("O=C(O)c1cccnc1", "inactive"),
    ("CCCCC(CC)COP(=O)(OCC(CC)CCCC)OCC(CC)CCCC (centres undefined)", "inactive"),
    ("CCCCCCCCCC[N+](C)(C)[O-]", "inactive"),
    ("CCCCC(CC)CO (centres undefined)", "inactive"),
    ("CC(COCC(C)OC(=O)c1ccccc1)OC(=O)c1ccccc1 (centres undefined)", "inactive"),
    ("CC(=O)O[C@]1(C(C)=O)CC[C@H]2[C@@H]3C=C(Cl)C4=CC(=O)[C@@H]5C[C@@H]5[C@]4(C)[C@H]3CC[C@@]21C", "inactive"),
    ("COC(=O)CCC(=O)OC", "inactive"),
    ("N[C@@H](Cc1c[nH]c2ccccc12)C(=O)O", "inactive"),
]

----------
Read-out: Collagen III, COL3A1 (gene 1281)
assay: BSK_hDFCGF_CollagenIII: BioMAP Diversity Plus: hDFCGF Assay for Collagen III Biomarker Activity (AID 2283056)
test-context: primary human foreskin fibroblasts; actives raise or lower the signal
Active and inactive are the calls of the source. Rule for the calls: active = hit-call score of the fitted dose curve at least 0.9, where 1 is the maximum; inactive = score below 0.9.
Outcome codes: 1 (active), 0 (inactive)

# molecule, category
records = [
    ("CCc1cc(C2=C(C(=O)O)N(c3ccccc3C(F)(F)F)S(=O)(=O)c3ccccc32)cc2c1OCO2", 1),
    ("Cn1cnc2c1c(=O)[nH]c(=O)n2C", 0),
    ("CCCCCCC(C=O)=Cc1ccccc1", 1),
    ("CCCCC(CC)COC(=O)CCCCCCCC(=O)OCC(CC)CCCC (stereo not drawn)", 0),
    ("C/C=C/c1ccc(OC)cc1", 0),
    ("CC(C)(O)c1ccc(CNC(=O)c2cccnc2Oc2ccc(F)cc2)cc1", 0),
    ("CCCCOC(=O)CCCCC(=O)OCCCC", 0),
    ("NC(=Nc1ccccc1)Nc1ccccc1", 0),
    ("OCC(O)CO", 0),
    ("CCCCc1nc2cccnc2n1Cc1ccc(-c2ccccc2-c2nnn[nH]2)cc1", 0),
    ("CC(=O)OC1CC(C)OC(C)O1 (stereo not drawn)", 0),
    ("CC1(C)C(=O)NC(=O)N1CO", 0),
    ("CC(C)OC(=O)C(C)(C)Oc1ccc(C(=O)c2ccc(Cl)cc2)cc1", 1),
    ("CCCCC(CC)CO (stereo not drawn)", 0),
    ("CCOCCOCCO", 0),
    ("CCCCC(CC)COP(=O)(OCC(CC)CCCC)OCC(CC)CCCC (stereo not drawn)", 0),
    ("CC(C)c1cccc(C(C)C)c1NC(=O)NS(=O)(=O)c1cc(C(C)(C)O)co1", 0),
    ("O=C(O)CN(CC(=O)O)CC(=O)O", 0),
    ("OCC(CO)n1cnc(-c2ccc(F)cc2)c1-c1ccnc(Oc2ccccc2)n1", 0),
    ("CN(C)C(=O)NC1(c2ccccc2)CCN(CC[C@@]2(c3ccc(F)c(F)c3)CN(C(=O)c3ccccc3)CCO2)CC1", 0),
    ("Cc1occc(=O)c1O", 0),
    ("O=C1NC(=O)C(c2ccccc2)(c2ccccc2)N1", 0),
    ("O=C1CCCCC1", 0),
    ("S=c1[nH]c2ccccc2s1", 1),
    ("CCc1nc(N)nc(N)c1-c1ccc(Cl)cc1", 0),
    ("COC(=O)CCC(=O)OC", 0),
    ("O=Cc1ccccc1C=O", 0),
    ("O=C(NS(=O)(=O)/C=C/c1cccs1)c1ccc(F)cc1Br", 0),
]

----------
Read-out: Cytochrome P450 7A1 (Homo sapiens) (UniProt P22680)
assay: LTEA_HepaRG_CYP7A1: Life Technologies and Expression Analysis (LTEA) Assay for Cytochrome P450 7A1 (CYP7A1) using HepaRG (AID 2283496)
test-context: mRNA level, 48 h; actives raise or lower the signal
The source made the active and inactive calls. How the source made its calls: active means hit-call score of the fitted dose curve at least 0.9, where 1 is the maximum; inactive means score below 0.9.
Outcome codes: y (active), n (inactive)

# molecule, category
measured = [
    ("COc1ccc(OC(F)(F)F)cc1CN[C@H]1CCCN[C@H]1c1ccccc1", "n"),
    ("O=C1c2c(O)cccc2Cc2cccc(O)c21", "n"),
    ("CC(C)(O)c1ccc(CNC(=O)c2cccnc2Oc2ccc(F)cc2)cc1", "n"),
    ("C/C=C/c1ccc(OC)cc1", "n"),
    ("OCC(CO)n1cnc(-c2ccc(F)cc2)c1-c1ccnc(Oc2ccccc2)n1", "n"),
    ("c1ccc2occc2c1", "n"),
    ("CC(C)(C)c1ccccc1", "n"),
    ("CCCCC(CC)COP(=O)(OCC(CC)CCCC)OCC(CC)CCCC (stereo unspecified)", "n"),
    ("N[C@@H](Cc1c[nH]c2ccccc12)C(=O)O", "n"),
    ("CC(=O)S[C@H](C(=O)N[C@H]1Cc2ccccc2[C@H]2CCC[C@@H](C(=O)O)N2C1=O)C(C)C", "n"),
    ("CN(C)C(=O)NC1(c2ccccc2)CCN(CCC[C@]2(c3ccc(Cl)c(Cl)c3)CCCN(C(=O)c3ccccc3)C2)CC1", "y"),
    ("CC(C)c1cccc(C(C)C)c1", "n"),
    ("CCc1nc(N)nc(N)c1-c1ccc(Cl)cc1", "y"),
    ("O=C(O)CC(O)(CC(=O)O)C(=O)O", "n"),
    ("CN(C)CCCN(C)CCCN(C)C", "n"),
    ("O=C(Oc1ccccc1)c1cccc(C(=O)Oc2ccccc2)c1", "n"),
    ("CC(C)COC(=O)CCCCC(=O)OCC(C)C", "n"),
    ("Oc1ccc(O)cc1", "n"),
    ("CC(=O)O", "n"),
    ("CO[C@@H]1COCC[C@@H]1N[C@@H]1CC[C@@](C(=O)N2CCc3ncc(C(F)(F)F)cc3C2)(C(C)C)C1", "n"),
    ("O=NO", "n"),
    ("CC(=O)O[C@]1(C(C)=O)CC[C@H]2[C@@H]3C=C(Cl)C4=CC(=O)[C@@H]5C[C@@H]5[C@]4(C)[C@H]3CC[C@@]21C", "y"),
    ("CCCCC(CC)CO (stereo unspecified)", "n"),
    ("COC(=O)CCC(=O)OC", "n"),
    ("Oc1ccccc1O", "n"),
    ("CCCC[C@H]1CN(CC2CCOCC2)C(=O)OC12CCN(C1(C)CCN(C(=O)c3c(C)ncnc3C)CC1)CC2", "n"),
]
